test system: Staphylococcus aureus; experiment: Antibacterial activity against Staphylococcus aureus ATCC 6538 after 18 hrs by agar dilution method; assay type: functional; details: ATCC 6538, 18 h
Measured parameter: MIC (µg/mL)

| Molecule | Measured parameter | Measure unit | Val |
| --- | --- | --- | --- |
| O=C(O)c1cn(C2CC2)c2cc(N3CCNCC3)c(F)cc2c1=O | MIC | µg/mL | 0.195 |

(P) CCn1cc(C(=O)O)c(=O)c2cc(F)c(N3CCN(Cc4ccc([N+](=O)[O-])o4)C(C)C3)c(F)c21 (racemic)
(Q) O=C(O)c1cn(C2CC2)c2cc(N3CCN(Cc4ccc([N+](=O)[O-])cc4)CC3)c(F)cc2c1=O
(R) CCn1cc(C(=O)O)c(=O)c2cc(F)c(N3CCN(Cc4ccc([N+](=O)[O-])o4)CC3)nc21
// query Put the items in order so that reported MIC rises from first to last. Enter labels, ranked according to the request.
// result R, P, Q

---

system: Staphylococcus aureus; test: Antibacterial activity against Staphylococcus aureus ATCC 6538 after 18 hrs by agar dilution method; format: functional; settings: ATCC 6538, 18 h
Measured parameter: MIC (µg/mL)

Past entries and their recorded results:
| Compound | MIC, µg/mL |
| --- | --- |
| CCn1cc(C(=O)O)c(=O)c2cc(F)c(N3CCNCC3)cc21 [NORFLOXACIN] | 0.39 |
| C[C@H]1COc2c(N3CCNCC3)c(F)cc3c(=O)c(C(=O)O)cn1c23 [N-DESMETHYL LEVOFLOXACIN] | 3.13 |

(I) C[C@H]1COc2c(N3CCN(Cc4ccc([N+](=O)[O-])o4)CC3)c(F)cc3c(=O)c(C(=O)O)cn1c23
(II) COc1c(N2CCNC(C)C2)c(F)cc2c(=O)c(C(=O)O)cn(C3CC3)c12 (centres undefined) [GATIFLOXACIN]
// query Lab notebook, comparison: I versus II , higher MIC goes to which? Lab note: record the label of whichever item you select.
// result I
